Hey, just so you know, these numbers are from the supplement of paper PMC6470124.

A collection of compounds and their measured absolute recovery
Experiment: absolute recovery over mixed-bed multilayer solid-phase extraction; higher = better recovery
Conditions: wastewater influent; enrichment method: SPE
Numeric answer only, unit % assumed.

compound | absolute recovery / %
O=C([O-])C(c1ccccc1Cl)[NH+]1CCc2sccc2C1 (centres undefined) | 92.8

[ask] Report absolute recovery for NC(=O)N1c2ccccc2CC(=O)c2ccccc21 [Oxcarbazepin] please.
[reply] 83.7

[ask] Next: CC(O)(CS(=O)(=O)c1ccc(F)cc1)C(=O)Nc1ccc(C#N)c(C(F)(F)F)c1 (centres undefined)
[reply] 95.2

[ask] Next: CC(C)(C)C(O)(CCc1ccc(Cl)cc1)Cn1cncn1 (centres undefined)
[reply] 94.3

[ask] Next: "Cc1cccc(Nc2ccncc2S(=O)(=O)[N-]C(=O)NC(C)C)c1"
[reply] 96

[ask] Next: "c1ccc2[nH]nnc2c1"
[reply] 95.1

[ask] Next: "C[Si](Cn1cncn1)(c1ccc(F)cc1)c1ccc(F)cc1"
[reply] 82.4

[ask] Next: COc1ccc(C2Sc3ccccc3N(CC[NH+](C)C)C(=O)C2OC(C)=O)cc1 (centres undefined)
[reply] 144

[ask] Next: "CCCCCCCCn1sc(Cl)c(Cl)c1=O"
[reply] 60.8

* * *

Test: absolute recovery over mixed-bed multilayer solid-phase extraction; higher = better recovery
Conditions: surface water; enrichment method: SPE
A collection of molecules and their measured absolute recovery
Numeric answer only, unit % assumed.

molecule | measured_result
Cc1cncc(C(=O)[O-])c1 | 34.2

[ask] Report absolute recovery for CC1COc2c(N3CCN(C)CC3)c(F)cc3c(=O)c(C(=O)[O-])cn1c23 (stereo not drawn) please.
[reply] 108

[ask] Next: "O=C1C=CC(=C2NC=CNC2=O)C=C1"
[reply] 79.4

[ask] Next: "CCOC(=O)Nc1cccc(OC(=O)Nc2ccccc2)c1"
[reply] 117

[ask] Next: CC12C=CC(=O)C=C1CCC1C2C(O)CC2(C)C1CCC2(O)C(=O)CO (stereo not drawn)
[reply] 82.7

[ask] Next: "C[NH+]=C([N-][N+](=O)[O-])NCc1cnc(Cl)s1"
[reply] 95.6

[ask] Next: CCC1OC(=O)C(C)C(OC2CC(C)(OC)C(O)C(C)O2)C(C)C(OC2OC(C)CC([NH+](C)C)C2O)C(C)(O)CC(C)C(=NOCOCCOC)C(C)C(O)C1(C)O (stereo not drawn)
[reply] 95.7

[ask] Next: N#Cc1nn(-c2c(Cl)cc(C(F)(F)F)cc2Cl)c(N)c1S(=O)C(F)(F)F (stereo not drawn)
[reply] 95.7

* * *

Assay: absolute recovery over mixed-bed multilayer solid-phase extraction; higher = better recovery
Conditions: wastewater effluent; enrichment method: SPE
measured_quantity: absolute recovery (%)
Numeric answer only, unit % assumed.

Study these solved cases before continuing.
molecule | value_unit | measured_result
Clc1cccc(N2CC[NH2+]CC2)c1 | % | 68.1
OC(Cc1ccccc1Cl)(Cn1cncn1)C1(Cl)CC1 (stereo not given) | % | 104
CSc1nnc(C(C)(C)C)c(=O)n1N | % | 89.8
COC(=O)C(Cc1ccccc1)NC(=O)C([NH3+])CC(=O)[O-] (stereo not given) | % | 53.3
CSC1=NC(C)(c2ccccc2)C(=O)N1Nc1ccccc1 (stereo not given) | % | 101
O=c1ccn(C2OC(CO)C(O)C2(F)F)c(=O)[nH]1 (stereo not given) | % | 95.1
CNC(=O)CSP(=S)(OC)OC | % | 93
CCCC(NC(C)C(=O)N1C(C(=O)[O-])CC2CCCCC21)C(=O)OCC (stereo not given) | % | 91.5

[ask] Report absolute recovery for "N#Cc1cc(I)c([O-])c(I)c1" please.
[reply] 99.4

[ask] Next: "C#CC[NH+](C)Cc1ccccc1"
[reply] 62.4

* * *

Experiment: absolute recovery over mixed-bed multilayer solid-phase extraction; higher = better recovery
Conditions: wastewater influent; enrichment method: SPE
measured_quantity: absolute recovery (%)
Numeric answer only, unit % assumed.

Study these solved cases before continuing.
molecule | absolute recovery / %
CC(C)Oc1cccc(NC(=O)c2ccccc2C(F)(F)F)c1 | 98
O=C([O-])Cc1ccccc1Nc1c(Cl)cc(O)cc1Cl [4-Hydroxydiclofenac A] | 83.3
C[NH+]1CCCC1c1cccnc1 (centres undefined) | 52.5

[ask] Report absolute recovery for "CC(C)(Oc1ccc(CCNC(=O)c2ccc(Cl)cc2)cc1)C(=O)[O-]" please.
[reply] 94

[ask] Next: O=C(NCc1ncc(C(F)(F)F)cc1Cl)c1c(Cl)cccc1Cl [Fluopicolide]
[reply] 93.4

[ask] Next: C[NH2+]CC(c1ccc(O)cc1)C1(O)CCCCC1 (centres undefined)
[reply] 83.4

[ask] Next: "CSc1nc(=O)c(C(C)(C)C)n[n-]1"
[reply] 90.7

[ask] Next: "CON(C)C(=O)Nc1ccc(Cl)cc1"
[reply] 94.2

[ask] Next: "CON=C(C(=O)OC)c1ccccc1COc1ccccc1C"
[reply] 93.5

[ask] Next: "Nc1cn[nH+]c([O-])c1Cl"
[reply] 72.3

[ask] Next: "COc1cccc(C(=O)NN(C(=O)c2cc(C)cc(C)c2)C(C)(C)C)c1C"
[reply] 94.8

[ask] Next: CC(=O)N(CC(O)CO)c1c(I)c(C(=O)NCC(O)CO)c(I)c(C(=O)NCC(O)CO)c1I (centres undefined) [Iohexol]
[reply] 56.8

[ask] Next: "CCCN(CCC)c1c([N+](=O)[O-])cc(S(N)(=O)=O)cc1[N+](=O)[O-]"
[reply] 109

[ask] Next: CC(=O)OC1C(C)OC(n2cc(F)c(N)nc2=O)C1OC(C)=O (centres undefined)
[reply] 84.6

[ask] Next: CN1C(=O)CC(C)(c2ccccc2)C1=O (centres undefined) [Methsuximide]
[reply] 89.6

[ask] Next: "CC(=O)N(C)c1ccccc1"
[reply] 144

[ask] Next: "O=C(NC(=O)c1c(F)cccc1F)Nc1ccc(Cl)cc1"
[reply] 67.9

[ask] Next: O=C([O-])C(c1ccccc1)C1CCCC[NH2+]1 (centres undefined)
[reply] 79.8

[ask] Next: "CC1(C(=O)Nc2ccc(O)c(Cl)c2Cl)CCCCC1"
[reply] 97

* * *

Experiment: absolute recovery over mixed-bed multilayer solid-phase extraction; higher = better recovery
Settings: wastewater influent; enrichment method: SPE
measured_quantity: absolute recovery (%)
Numeric answer only, unit % assumed.

Study these solved cases before continuing.
molecule | absolute recovery / %
CN(C)C(=O)Nc1ccc(Cl)c(Cl)c1 | 94.1
Cc1cc(=O)n(-c2ccccc2)n1C [Phenazon (=Antipyrin)] | 95.5
C[NH2+]C(C)Cc1ccccc1 (stereo unspecified) | 92.5
COc1nn(CSP(=S)(OC)OC)c(=O)s1 | 88.2

[ask] Report absolute recovery for COCc1cnc(C2=NC(C)(C(C)C)C(=O)N2)c(C(=O)[O-])c1 (stereo unspecified) please.
[reply] 90.4

[ask] Next: "COC=C(C(=O)OC)c1ccccc1COc1cccc(C(F)(F)F)n1"
[reply] 81.3

* * *

A collection of molecules and their measured absolute recovery
Experiment: absolute recovery over mixed-bed multilayer solid-phase extraction; higher = better recovery
Settings: wastewater influent; enrichment method: SPE
Show the value, then the unit it is measured in.

molecule | measured_quantity | measured_result
COc1cccc(C2(O)CCCCC2C[N+](C)(C)[O-])c1 (centres undefined) [Tramadol-N-oxide] | absolute recovery | 95%
OC(Cc1ccccc1Cl)(Cn1cncn1)C1(Cl)CC1 (centres undefined) [Prothioconazole-desethio] | absolute recovery | 104%
O=C1CCC2(O)C3Cc4ccc(O)c5c4C2(CC[NH+]3CC2CC2)C1O5 (centres undefined) [Naltrexon] | absolute recovery | 94.3%
CC(C)(C)C(=O)C(Oc1ccc(Cl)cc1)n1ccnc1 (centres undefined) [Climbazol] | absolute recovery | 90.1%
CC[N+]1([O-])CCCC1CNC(=O)c1cc(S(=O)(=O)CC)c(N)cc1OC (centres undefined) [Amisulpride-N-Oxide] | absolute recovery | 93.4%

[ask] Report absolute recovery for O=C1Nc2ccc(Cl)cc2C(c2ccccc2)=NC1O (centres undefined) [Oxazepam] please.
[reply] 93.9%

[ask] Next: COc1c(Cl)ccc(Cl)c1C(=O)[O-] [Dicamba]
[reply] 91.2%

[ask] Next: C[NH+](C)CCC=C1c2ccccc2COc2ccc(CC(=O)[O-])cc21 [Olopatadine]
[reply] 84.9%

[ask] Next: CCCCCCCCn1sccc1=O [2-n-Octyl-4-isothiazolin-3-on (=OIT)]
[reply] 90.7%

* * *

A collection of compounds and their measured LC retention time
Assay: LC retention time (Atlantis T3, 5-95% MeOH gradient, 0.1% formic acid); higher = more retained / less polar
Numeric answer only, unit min assumed.

compound | measured_result
N#CCNC(=O)c1cnccc1C(F)(F)F | 12.2
Cc1cc(C)nc(NC(=O)[N-]S(=O)(=O)c2ccccc2C(=O)OC2COC2)n1 | 16.5
O=C([O-])C(c1ccccc1)C1CCCC[NH2+]1 (stereo not given) | 12.3
COCC(=O)N(c1c(C)cccc1C)C(C)C(=O)OC (stereo not given) [Metalaxyl] | 18.4
N#Cc1c(Cl)c(Cl)c([O-])c(C(=[NH2+])[O-])c1Cl | 16.8

[ask] Report LC retention time for "COC(=O)c1ccc(C(F)(F)F)nc1S(=O)(=O)[N-]C(=O)Nc1nc(OC)cc(OC)n1" please.
[reply] 19.2

[ask] Next: C[NH2+]C1(c2ccccc2Cl)CCCCC1=O (stereo not given)
[reply] 11.7

[ask] Next: "CCOP(=O)(OCC)Oc1cc(C)nc(C(C)C)n1"
[reply] 18.8

[ask] Next: "CNC(=O)ON=CC(C)(C)SC"
[reply] 16

[ask] Next: "[NH3+]CCc1ccc(O)c(O)c1"
[reply] 4.36
